All values here come from patent US20190119407A1.

Molecular target: T1, human TL1A (human, UniProt O95150 72-251, limits assumed)
T1 construct: also called huTL1A; TNFSF15
T1 sequence (looked up): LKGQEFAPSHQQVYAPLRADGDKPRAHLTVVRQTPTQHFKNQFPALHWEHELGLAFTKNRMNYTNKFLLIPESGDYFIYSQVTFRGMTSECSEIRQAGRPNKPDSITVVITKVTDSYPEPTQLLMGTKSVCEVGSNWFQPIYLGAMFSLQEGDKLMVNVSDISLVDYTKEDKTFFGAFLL
Experiment: hybridoma screening after immunisation with recombinant human TL1A soluble protein; member named through Tables A, C and D

| binder | binding result |
| --- | --- |
| 91F10_LC2 (antibody, human IgG2, kappa, V domains shown, also called iPS 427572) VH: QGQLVQSGAEVKKPGASVKVSCQASGYTFTAYYMHWVRQAPGQGLEWMGWINPNSGGTNYAQKFRGRVTMTRDTSISTAYMELSRLRSDDTAVYYCATGGSWEGFDYWGQGTLVTVSS VL: DIQMTQSPSSLSASVGDRVTITCRASQSISSYLNWYQQKPGKAPKFLIYAASRLQSGVPSRFSGSGSGTDFTLTISSLQPEDFATYYCQQSDSTPITFGQGTRLEIKR | binds |
| 23B3 VH3 (antibody, human IgG1, kappa, N297G, V domains shown, also called 23B3 HC3; iPS 325336) VH: EVQLLESGGGLVQPGGSLRLSCAISGDSVSTNSVAWNWIRQAPGKGLEWVSRTYYRSKWYNDYAVSVKGRFTISPDTSKNTFYLQMNSLRAEDTAVYYCAREDGDSYYRYGMDVWGQGTTVTVSS VL: DIQMTQSPSSLSASVGDRVTITCRSSQSVLYSSNNKNYLVWYQQKPGKVPKLLIYWASTRESGVPSRFSGSGSGTDFTLTISSLQPEDFATYYCQQYYKTPLTFGGGTKVEIKR | binds |
| 91G8 (antibody, human IgG2, kappa, V domains shown, also called iPS 427524) VH: EVQLLESGGGLVQPGGSLRLSCVASGFTFSSYAMSWVRQAPGKGLEWVSGISGSGGSRYYADSVKGRFTISRDNSKNTLYLQMNSLRAEDTAVYYCAIEVAGAFDIWGQGTMVTVSS VL: DIQMIQSPSSLSASVGDRVTITCRASQSISSYLNWYQQKPGKAPKFLIYAASSLQSGVPSRFSGSGSGTDFTLTISSLQPEDFATYYCQQSFSTITFGQGTRLEIKR | binds |
| 91D7 (antibody, human IgG2, kappa, V domains shown, also called iPS 427514) VH: QVQLQQWGAGLLKPSETLSLTCAVYGGSFSGYYWSWIRQPPGKGLEWIGEINPVGRTNYKPSLKSRVTISVDTSKNQFSLKLSSVTAADTALYYCARDNGWHYAFDIWGQGTMVTVSS VL: DIQMTQSPSSLSASVGDRVTITCRASQNISSYLNWYQQRPGKAPNLLLFTASSLQSGVPSRFSGSGSGTDFTLTINSLQPEDFATYYCQQSYSNPPESSFGQGTKLEIKR | binds |
| 76A4 (antibody, human IgG2, kappa, V domains shown, also called iPS 427529) VH: QVQLQQSGPGLVKPSQTLSLTCAISGDSVSSNSATWNWIRQSPSRGLEWLGRTYYRSKLYNDYAVSVKSRITINPDTSKNQFSLQLNSVTPEDTAVYYCAREVVAGPRWFDPWGQGTLVTVSS VL: DIQMTQSPSSLSASVGDRVTITCRASQSVTSYLNWYQQKPGKAPKLLIYTASSLQSGIPSRFSGSGSGTDFTLTISSLQPEDFATYFCQQSYSTPRSFGQGTKLEIKR | binds |
